test system: Staphylococcus aureus ATCC 25923; type: cell-based; conditions: ATCC 25923
Property: MIC S. aureus (µg/mL)
# number only, unit µg/mL dropped from output

Requested field: MIC S. aureus. Item: `CSCC[C@H](NC(=O)[C@H](CCCNC(=N)N)NC(=O)[C@H](Cc1c[nH]c2ccccc12)NC(=O)[C@H](CCC(N)=O)NC(=O)[C@H](Cc1ccc2ccccc2c1)NC(=O)[C@H](CCCNC(=N)N)NC(=O)[C@H](CCCNC(=N)N)NC(=O)[C@H](CSCNC(C)=O)NC(=O)[C@H](CCCCN)NC(=O)[C@@H](N)Cc1ccccc1)C(=O)N[C@@H](CCCCN)C(=O)N[C@@H](CCCCN)C(=O)N[C@@H](CC(C)C)C(=O)NCC(=O)N[C@@H](C)C(=O)O`
75

====

test system: human red blood cells; assay: Hemolytic assay; assay type: cell-based; details: red cells of human, 10
Property: % Hemolysis 10 μg/ml (%)
# number only, unit % dropped from output

CSCC[C@@H](NC(=O)[C@@H](CCCCN)NC(=O)[C@@H](CCCCN)NC(=O)[C@@H](CC(C)C)NC(=O)CNC(=O)[C@@H](C)N)C(=O)N[C@H](CCCNC(=N)N)C(=O)N[C@H](Cc1c[nH]c2ccccc12)C(=O)N[C@H](CCC(N)=O)C(=O)N[C@H](Cc1c[nH]c2ccccc12)C(=O)N[C@H](CCCNC(=N)N)C(=O)N[C@H](CCCNC(=N)N)C(=O)N[C@H](CSCNC(C)=O)C(=O)N[C@H](CCCCN)C(=O)N[C@H](Cc1ccccc1)C(=O)O [Retro-Enantio LFB 17-31] = 3.31

Requested field: % Hemolysis 10 μg/ml. Item: `CSCC[C@H](NC(=O)[C@H](CCCNC(=N)N)NC(=O)[C@H](Cc1c[nH]c2ccccc12)NC(=O)[C@H](CCC(N)=O)NC(=O)[C@H](Cc1ccc2ccccc2c1)NC(=O)[C@H](CCCNC(=N)N)NC(=O)[C@H](CCCNC(=N)N)NC(=O)[C@H](CSCNC(C)=O)NC(=O)[C@H](CCCCN)NC(=O)[C@@H](N)Cc1ccccc1)C(=O)N[C@@H](CCCCN)C(=O)N[C@@H](CCCCN)C(=O)N[C@@H](CC(C)C)C(=O)NCC(=O)N[C@@H](C)C(=O)O`
2.2

====

Each item that follows carries a reported MIC E. coli.
system: Escherichia coli ATCC 25922; assay type: cell-based; details: ATCC 25922
Peptide text beside a SMILES is read from it. * marks the point of attachment. Acm = CC(=O)NC*
# number only, unit µg/mL dropped from output

CSCC[C@H](NC(=O)[C@H](C)NC(=O)[C@H](Cc1c[nH]c2ccccc12)NC(=O)[C@H](CCC(N)=O)NC(=O)[C@H](Cc1c[nH]c2ccccc12)NC(=O)[C@H](CCCNC(=N)N)NC(=O)[C@H](CC(C)C)NC(=O)[C@H](CSCNC(C)=O)NC(=O)[C@H](CCCCN)NC(=O)[C@H](C)N)C(=O)N[C@@H](CCCNC(=N)N)C(=O)N[C@@H](CCCCN)C(=O)N[C@@H](Cc1ccc(O)cc1)C(=O)NCC(=O)NCC(=O)O [LFM A1, 9 W8 Y13] (H-AKC(Acm)LRWQWAMRKYGG-OH; N-terminus and C-terminus assumed) = 150

Continue with the molecule presented below.
Requested field: MIC E. coli. Item: CSCC[C@H](NC(=O)[C@H](CCCNC(=N)N)NC(=O)[C@H](Cc1ccc(-c2ccccc2)cc1)NC(=O)[C@H](CCC(N)=O)NC(=O)[C@H](Cc1ccc(-c2ccccc2)cc1)NC(=O)[C@H](CCCNC(=N)N)NC(=O)[C@H](CCCNC(=N)N)NC(=O)[C@H](CSCNC(C)=O)NC(=O)[C@H](CCCCN)NC(=O)[C@@H](N)Cc1ccccc1)C(=O)N[C@@H](CCCCN)C(=O)N[C@@H](CCCCN)C(=O)N[C@@H](CC(C)C)C(=O)NCC(=O)N[C@@H](C)C(=O)O [LFB Bip6, 8]
10

====

tested on: human red blood cells; assay: Hemolytic assay; format: cell-based; settings: red cells of human
Ends that are not written are not given here.
Property: EC50

Requested field: EC50. Item: PAWRKARRWAWRMKKLAA-OH [LFB 14-31 A2,6, 10, 17R4]
> 438 µM

Try this substance next: PAWRKAFRWAARMLKKAA-OH [LFB 14-31A2,6, 10, 11, 17F7K16L14R4]
278 µM

Try this substance next: PAIRKAFRIAWRMLKKAA-OH [LFB 14-31A2,6, 10, 17F7I3, 9K16L14R4]
> 470 µM

Try this substance next: PAWRKAFRWAKRMLKKAA-OH [LFB 14-31A2,6, 10, 17F7K11, 16L14R4]
> 451 µM

Try this substance next: PAWRKAARWAWRMLKKAA-OH [LFB 14-31A2,6, 10, 17F7K16L14R4 F7 → A7]
> 455 µM

Try this substance next: PAWFKARRWAWRMKK-OH [LFB 14-28 A2,6, 10]
> 438 µM

Try this substance next: PAIRKAFRWAWRMLKKAA-OH [LFB 14-31A2,6, 10, 17F7I3K16L14R4]
323 µM

Try this substance next: PAWFKARRWAWRMKKL-OH [LFB 14-29 A2,6, 10]
> 469 µM

Try this substance next: PAWRKAFRKAKRMLKKAA-OH [LFB 14-31A2,6, 10, 17F7K9, 11, 16L14R4]
> 463 µM

====

tested on: human red blood cells; experiment: Hemolytic assay; type: cell-based; conditions: red cells of human, 10
Peptide text beside a SMILES is read from it. * marks the point of attachment. Acm = CC(=O)NC*
Each item that follows carries a reported % Hemolysis 10 μg/ml.
# number only, unit % dropped from output

Requested field: % Hemolysis 10 μg/ml. Item: CSCC[C@H](NC(=O)[C@H](CCCNC(=N)N)NC(=O)[C@H](Cc1c[nH]c2ccccc12)NC(=O)[C@H](CCC(N)=O)NC(=O)[C@H](Cc1c[nH]c2ccccc12)NC(=O)[C@H](CCCNC(=N)N)NC(=O)[C@H](CC(C)C)NC(=O)[C@H](CSCNC(C)=O)NC(=O)[C@H](CCCCN)NC(=O)[C@@H](N)CCCNC(=N)N)C(=O)N[C@@H](CCCNC(=N)N)C(=O)N[C@@H](CCCCN)C(=O)N[C@H](C(=O)NCC(=O)NCC(=O)O)C(C)C [LFM R1, 9 W8] (H-RKC(Acm)LRWQWRMRKVGG-OH; N-terminus assumed)
3.69

Try this compound next: `CSCC[C@H](NC(=O)[C@H](CCCNC(=N)N)NC(=O)[C@H](Cc1c(S(=O)(=O)c2c(C)c(C)c3c(c2C)CCC(C)(C)O3)[nH]c2ccccc12)NC(=O)[C@H](CCC(N)=O)NC(=O)[C@H](Cc1ccc2ccccc2c1)NC(=O)[C@H](CCCNC(=N)N)NC(=O)[C@H](CCCNC(=N)N)NC(=O)[C@H](CSCNC(C)=O)NC(=O)[C@H](CCCCN)NC(=O)[C@@H](N)Cc1ccccc1)C(=O)N[C@@H](CCCCN)C(=O)N[C@@H](CCCCN)C(=O)N[C@@H](CC(C)C)C(=O)NCC(=O)N[C@@H](C)C(=O)O`
2.8

Try this compound next: CSCC[C@H](NC(=O)[C@H](C)NC(=O)[C@H](Cc1c[nH]c2ccccc12)NC(=O)[C@H](CCC(N)=O)NC(=O)[C@H](Cc1c[nH]c2ccccc12)NC(=O)[C@H](CCCNC(=N)N)NC(=O)[C@H](CC(C)C)NC(=O)[C@H](CSCNC(C)=O)NC(=O)[C@H](CCCCN)NC(=O)[C@@H](N)CCC(=O)O)C(=O)N[C@@H](CCCNC(=N)N)C(=O)N[C@@H](CCCCN)C(=O)N[C@H](C(=O)NCC(=O)NCC(=O)O)C(C)C [LFM A9 W8] (H-EKC(Acm)LRWQWAMRKVGG-OH; N-terminus assumed)
2.5

====

tested on: Escherichia coli ATCC 25922; assay type: cell-based; details: ATCC 25922
Peptide text beside a SMILES is read from it. * marks the point of attachment. Acm = CC(=O)NC*
Property: MIC E. coli (µg/mL)
# number only, unit µg/mL dropped from output

CSCC[C@H](NC(=O)[C@H](C)NC(=O)[C@H](Cc1c[nH]c2ccccc12)NC(=O)[C@H](CCC(N)=O)NC(=O)[C@H](Cc1c[nH]c2ccccc12)NC(=O)[C@H](CCCNC(=N)N)NC(=O)[C@H](CC(C)C)NC(=O)[C@H](CSCNC(C)=O)NC(=O)[C@H](CCCCN)NC(=O)[C@H](C)N)C(=O)N[C@@H](CCCNC(=N)N)C(=O)N[C@@H](CCCCN)C(=O)N[C@H](C(=O)NCC(=O)NCC(=O)O)C(C)C [LFM A1, 9 W8] (H-AKC(Acm)LRWQWAMRKVGG-OH; N-terminus assumed) = 200

Requested field: MIC E. coli. Item: CC(=O)NCSC[C@H](NC(=O)[C@H](CCCCN)NC(=O)[C@@H](N)Cc1ccccc1)C(=O)N[C@@H](CCCNC(=N)N)C(=O)N[C@@H](CCCNC(=N)N)C(=O)N[C@@H](Cc1c[nH]c2ccccc12)C(=O)N[C@@H](CCC(N)=O)C(=O)N[C@@H](Cc1c[nH]c2ccccc12)C(=O)N[C@@H](CCCNC(=N)N)C(=O)N[C@@H](C)C(=O)N[C@@H](CCCCN)C(=O)N[C@@H](CCCCN)C(=O)N[C@@H](CC(C)C)C(=O)NCC(=O)N[C@@H](C)C(=O)O [LFB A10] (H-FKC(Acm)RRWQWRAKKLGA-OH)
140

Try this compound next: CSCC[C@H](NC(=O)[C@H](C)NC(=O)[C@H](Cc1c[nH]c2ccccc12)NC(=O)[C@H](CCC(N)=O)NC(=O)[C@H](Cc1c[nH]c2ccccc12)NC(=O)[C@H](CCCNC(=N)N)NC(=O)[C@H](CCCNC(=N)N)NC(=O)[C@H](CSCNC(C)=O)NC(=O)[C@H](CCCCN)NC(=O)[C@@H](N)Cc1ccccc1)C(=O)N[C@@H](CCCCN)C(=O)N[C@@H](CCCCN)C(=O)N[C@@H](CC(C)C)C(=O)NCC(=O)N[C@@H](C)C(=O)O [LFB A9] (H-FKC(Acm)RRWQWAMKKLGA-OH)
55

Try this compound next: `CSCC[C@H](NC(=O)[C@H](CCCNC(=N)N)NC(=O)[C@H](Cc1c[nH]c2ccccc12)NC(=O)[C@H](CCC(N)=O)NC(=O)[C@H](Cc1c[nH]c2ccccc12)NC(=O)[C@H](CCCNC(=N)N)NC(=O)[C@H](CCCNC(=N)N)NC(=O)[C@H](Cc1c[nH]c2ccccc12)NC(=O)[C@H](CCCCN)NC(=O)[C@@H](N)Cc1ccccc1)C(=O)N[C@@H](CCCCN)C(=O)N[C@@H](CCCCN)C(=O)N[C@@H](CC(C)C)C(=O)NCC(=O)N[C@@H](C)C(=O)O`
20

Try this compound next: `CSCC[C@H](NC(=O)[C@H](CCCNC(=N)N)NC(=O)[C@H](Cc1c(S(=O)(=O)c2c(C)c(C)c3c(c2C)CCC(C)(C)O3)[nH]c2ccccc12)NC(=O)[C@H](CCC(N)=O)NC(=O)[C@H](Cc1c[nH]c2ccccc12)NC(=O)[C@H](CCCNC(=N)N)NC(=O)[C@H](CCCNC(=N)N)NC(=O)[C@H](CSCNC(C)=O)NC(=O)[C@H](CCCCN)NC(=O)[C@@H](N)Cc1ccccc1)C(=O)N[C@@H](CCCCN)C(=O)N[C@@H](CCCCN)C(=O)N[C@@H](CC(C)C)C(=O)NCC(=O)N[C@@H](C)C(=O)O`
18
